// provenance: PubChem BioAssay AID328

test system: BDF1 mice, P388 leukemia ip, median survival T/C; assay: NCI In Vivo Anticancer Drug Screen. Data for tumor model P388 Leukemia (intraperitoneal) in B6D2F1 (BDF1) mice; settings: endpoint: median survival time; dose: 400.0 mg/kg/injection; schedule: Q01DX009 (ip); vehicle: saline
Toxic doses and inconclusive results are not listed. How the source made its calls: active means survival T/C of 150% or more; inactive means T/C below 125% in these data.
Select the correct class. Options are 1.0 = active, 0.0 = inactive and nothing else.

Completed entries (count: 5):
>>> answer_label("O=C(Oc1ccc([N+](=O)[O-])cc1)c1ccc(C[P+](c2ccccc2)(c2ccccc2)c2ccccc2)cc1")
0.0
>>> answer_label("CC(C)C1(C(=O)NN)OC2(O)CCCCCN2C1=O (stereo not given)")
0.0
>>> answer_label("CN(C)N=Nc1cn(C2OC(CO)C(O)C2O)c(=O)[nH]c1=O (stereo not given)")
1.0
>>> answer_label("O=c1cnn(C2OC(CO)C(O)C2O)c(=O)[nH]1 (stereo not given)")
0.0
>>> answer_label("Cc1nnc2ncccn12")
0.0

Would you mind telling me which call this test gave Cc1cccc(CSc2nc(N)nc3ncn(C4CC(O)C(CO)O4)c23)n1 (stereo not given) ? 0.0

Same question for `CC1(C)Cc2cc3cc(Cl)ccc3nc2-c2ccccc21` please. 0.0

Same for `COC(CN(C)CC(OC)OC)OC` 0.0

Also need `C[Si](C)(C)OC/C=C\CO[Si](C)(C)C` , thanks. 0.0

Next entry: `COc1ccc(/C=C(/C#N)C(N)=O)cc1Br` 0.0

Next: `C[N+]12CCN(CC1)CC2` 0.0

Okay, and `CCOC1=CCCCC1` ? 0.0
